Tested on: human serum
experiment: Human serum binding (ultrafiltration, HPLC)
Type: in vitro ADME
quantity-kind: Human Serum Binding (%)

Reported human serum Human Serum Binding for item Nc1nnc(SC2=C(C(=O)O)N3C(=O)C(NC(=O)/C(=N\O)c4nc(N)sc4Cl)C3CC2)s1 (stereo not shown) was 68.0

Reported human serum Human Serum Binding for item NCCSCc1ncccc1SC1=C(C(=O)O)N2C(=O)C(NC(=O)/C(=N\O)c3nc(N)sc3Cl)C2CC1 (stereo not shown) was 89.4

Reported human serum Human Serum Binding for item NCCSCc1cnccc1SC1=C(C(=O)O)N2C(=O)C(NC(=O)/C(=N\O)c3nc(N)sc3Cl)C2CC1 (stereo not shown) was 74.5

Reported human serum Human Serum Binding for item Nc1nc(/C(=N/O)C(=O)NC2C(=O)N3C(C(=O)O)=C(Sc4nncs4)CCC23)c(Cl)s1 (stereo not shown) was 66.9
